# assayTarget: UBE2H
# procedureSummary: reporter assay of Huesken 2005
# testConditions: siRNA
Oligonucleotides are written 5' to 3', each unit as a sugar letter and its base; * is a phosphorothioate linkage, no mark a phosphodiester; rarer units and linkages stand in square brackets, end groups in braces. Plain capitals give the bases only. d = 2'-deoxy (DNA); r = 2'-OH (RNA)
Label scheme for normalised inhibition (eCFP-eYFP dual reporter): lower than 70% is rule not met, 70% and above is rule met.

Some solved cases for reference:
substance | classAssignment
sense rArArCrCrCrCrArUrArGrArUrCrCrUrCrUrCrAdTdT / antisense rUrGrArGrArGrGrArUrCrUrArUrGrGrGrGrUrUdAdG | rule not met
sense rCrCrArGrArArGrArArUrArCrArArGrCrArGrAdTdT / antisense rUrCrUrGrCrUrUrGrUrArUrUrCrUrUrCrUrGrGdTdC | rule met
sense rGrUrGrGrArCrCrUrArCrCrUrGrArUrArArArUdTdT / antisense rArUrUrUrArUrCrArGrGrUrArGrGrUrCrCrArCdTdC | rule met
sense rGrArGrGrUrUrArCrGrArUrCrCrUrGrGrGrArGdTdT / antisense rCrUrCrCrCrArGrGrArUrCrGrUrArArCrCrUrCdAdT | rule not met

From here, focus on the item given below.
(Q) Reported normalised inhibition (eCFP-eYFP dual reporter) at or above 70%? sense rArUrCrUrArUrArGrGrArUrUrCrArUrGrArArUdTdT / antisense rArUrUrCrArUrGrArArUrCrCrUrArUrArGrArUdGdG
(A) rule met

----------
This section presents substances with their documented normalised inhibition (eCFP-eYFP dual reporter) values.
# assayTarget: UBE2E3
# procedureSummary: reporter assay of Huesken 2005
# testConditions: siRNA
Oligonucleotides are written 5' to 3', each unit as a sugar letter and its base; * is a phosphorothioate linkage, no mark a phosphodiester; rarer units and linkages stand in square brackets, end groups in braces. Plain capitals give the bases only. d = 2'-deoxy (DNA); r = 2'-OH (RNA)
Express your answer in %, writing the number without its unit.

substance | assayTarget | measuredValue
sense rUrGrCrGrGrArUrCrCrUrCrUrGrGrUrUrGrGrAdTdT / antisense rUrCrCrArArCrCrArGrArGrGrArUrCrCrGrCrAdGdG | UBE2E3 | 75.8

(Q) Hello, I am looking for reported normalised inhibition (eCFP-eYFP dual reporter) with UBE2E3 for sense rUrGrArArGrArArCrArArGrArGrGrArArArGrAdTdT / antisense rUrCrUrUrUrCrCrUrCrUrUrGrUrUrCrUrUrCrAdGdG . Could you help?
(A) 89.3

(Q) Continue with sense rUrUrUrUrGrArCrArGrArCrUrGrCrArArCrCrCdTdT / antisense rGrGrGrUrUrGrCrArGrUrCrUrGrUrCrArArArAdGdG
(A) 50.3

(Q) Continue with sense rCrArGrUrGrCrUrGrGrGrCrCrUrArArArGrGrAdTdT / antisense rUrCrCrUrUrUrArGrGrCrCrCrArGrCrArCrUrGdCdA
(A) 73.2

(Q) Continue with sense rGrGrArUrCrCrUrCrUrGrGrUrUrGrGrArArGrCdTdT / antisense rGrCrUrUrCrCrArArCrCrArGrArGrGrArUrCrCdGdC
(A) 59.8

(Q) Continue with sense rGrUrCrArUrCrUrGrUrCrUrGrGrArCrArUrCrCdTdT / antisense rGrGrArUrGrUrCrCrArGrArCrArGrArUrGrArCdTdC
(A) 43.8
